The compounds listed here are annotated with their MIC.
Tested on: Staphylococcus aureus
method_notes: Antibacterial activity against tetracycline-resistant Staphylococcus aureus XU212 after 18 hrs
Type: functional
reported_conditions: XU212, 18 h
Write the number in µg/mL without appending the unit.

compound: CCCCCc1cc(O)c(C/C=C(\C)CCC=C(C)C)c(O)c1 [CANNABIGEROL]
tgt: Staphylococcus aureus
result_unit: µg/mL
MIC: 1

With those in mind, consider the next compound.
Exam item: Please report the recorded MIC for C=C(C)[C@@H]1CCC(C)=C[C@H]1c1c(O)cc(CCCCC)cc1O [CANNABIDIOL] .
Marked response: 1

###

Test system: Staphylococcus aureus
method_notes: Antibacterial activity against macrolide-resistant Staphylococcus aureus RN4220 after 18 hrs
Type: functional
reported_conditions: RN4220, 18 h
measured_property: MIC

// worked examples, MIC included
compound: CCCCCc1cc2c(c(O)c1C(=O)O)[C@@H]1C=C(C)CC[C@H]1C(C)(C)O2 [DELTA9-TETRAHYDROCANNABINOLIC ACID A]
measured_property: MIC
value_reported: 4 µg/mL
--
compound: C=C(C)[C@@H]1CCC(C)=C[C@H]1c1c(OC)cc(CCCCC)cc1OC
measured_property: MIC
value_reported: > 128 µg/mL
--
compound: C=C(C)[C@@H]1CCC(C)=C[C@H]1c1c(O)cc(CCCCC)c(C(=O)OC)c1O
measured_property: MIC
value_reported: > 128 µg/mL

With those in mind, consider the next compound.
Exam item: Please report the recorded MIC for C=C(C)C1CCC(C)=CC1c1c(CCCCC)cc(O)c([C@@H]2C=C(C)CC[C@H]2C(=C)C)c1O (some centres undefined) .
Marked response: > 128 µg/mL
